# target.under.test: UniProt P41145
# Sequence (P41145 whole entry): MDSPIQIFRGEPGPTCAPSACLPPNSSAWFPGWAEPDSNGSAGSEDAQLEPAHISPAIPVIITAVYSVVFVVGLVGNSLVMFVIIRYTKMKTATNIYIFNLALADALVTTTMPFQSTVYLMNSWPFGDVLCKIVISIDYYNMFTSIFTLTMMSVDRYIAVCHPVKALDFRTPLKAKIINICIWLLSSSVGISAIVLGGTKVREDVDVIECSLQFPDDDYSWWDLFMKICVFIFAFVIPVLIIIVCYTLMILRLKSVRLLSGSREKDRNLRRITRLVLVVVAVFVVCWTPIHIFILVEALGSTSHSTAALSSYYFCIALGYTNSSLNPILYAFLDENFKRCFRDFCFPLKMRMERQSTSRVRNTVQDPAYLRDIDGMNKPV
# assay.explanation: Displacement of [3H]diprenorphine from kappa opioid receptor expressed in HEK293 cells relative to salvinorin A
# Format: cell-based
# Set-up: concentration or dose not given beside the values
result.type: Activity
Value and unit, in that order.

Which value of Activity has been reported for COC(=O)[C@@H]1C[C@H](OC(=O)CNC(=O)OCC2c3ccccc3-c3ccccc32)C(=O)[C@H]2[C@@]1(C)CC[C@H]1C(=O)O[C@H](c3ccoc3)C[C@]21C in the records?
10%

Reported Activity for COC(=O)[C@@H]1C[C@H](OC(=O)CCCNC(=O)OCC2c3ccccc3-c3ccccc32)C(=O)[C@H]2[C@@]1(C)CC[C@H]1C(=O)O[C@H](c3ccoc3)C[C@]21C : what is it?
0%

Sample COC(=O)[C@@H]1C[C@H](OC(=O)[C@@H](N)C(C)C)C(=O)[C@H]2[C@@]1(C)CC[C@H]1C(=O)O[C@H](c3ccoc3)C[C@]21C — what was its Activity?
91%

Requested field: Activity. Item: COC(=O)[C@@H]1C[C@H](OC(=O)[C@@H](N)Cc2ccccc2)C(=O)[C@H]2[C@@]1(C)CC[C@H]1C(=O)O[C@H](c3ccoc3)C[C@]21C
0%

# get_value(readout='Activity', item= COC(=O)[C@@H]1C[C@H](OC(=O)CN)C(=O)[C@H]2[C@@]1(C)CC[C@H]1C(=O)O[C@H](c3ccoc3)C[C@]21C )
0%

What value of measured Activity is listed for COC(=O)[C@@H]1C[C@H](OC(=O)[C@@H](N)[C@H](C)OC(C)(C)C)C(=O)[C@H]2[C@@]1(C)CC[C@H]1C(=O)O[C@H](c3ccoc3)C[C@]21C ?
0%

Taken from ChEMBL document CHEMBL1641545.
